B1: OR4K15 (parent)
chain: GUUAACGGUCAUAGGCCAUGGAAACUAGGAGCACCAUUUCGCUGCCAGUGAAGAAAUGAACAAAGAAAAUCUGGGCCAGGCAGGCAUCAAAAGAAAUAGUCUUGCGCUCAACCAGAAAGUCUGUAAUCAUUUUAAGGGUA

variants of: B1; assay: self-cleavage, relative activity (ratio to wild type); higher = more cleavage; in vitro, sequencing; the parent is a self-cleaving ribozyme
MEASURED_METRIC: self-cleavage
When you answer, write just the number.

Below, 5 variants whose answers are already recorded.
INSERT INTO results (residues, measured_metric, endpoint_value) VALUES
  ('GUUAACGGUCAUAGGCCAUGGAAACUAGGAGCACCAUUUCGCUGCCAGUGAAGAGAUGAACAAAGAAAGUCUGGGCCAGGCAGGCAUCAAAAGAAAUAGUCUUGCGCUCAACCAGAAAGUCUGUAAUCAUUUUAAGGGUA [A55G A69G]', 'self-cleavage', 0.78),
  ('GUUAACGGUCAUAGGCCAUGGAAACUAGGAGCGCCAUUUCGCUGCCAGUGAAGAAAUGAACAAAGAAAAUCUGGGCCAGGCAGGCAUCAAAAGAAAUAGUCUUGCGCUCAACCAGAAAGUCUGUAAUCAUUUUAUGGGUA [A33G A135U]', 'self-cleavage', 0.95),
  ('GUUAACGGUCAUAGGCCAUGGAAACUAGGAGCACCAUUUCGCAGCCAGUGAAGAAAUGAACAAAGAAAAUCUGGGCCAGGCAGGCUUCAAAAGAAAUAGUCUUGCGCUCAACCAGAAAGUCUGUAAUCAUUUUAAGGGUA [U43A A86U]', 'self-cleavage', 1.7),
  ('GUUAACGGUCAUAGGCCAUGGAAACUAGGAGCACCAUUUCGCUGCCAGUGAAGAAAUGAACAGAGAAAAUCUGGGCCAGGCAGGCAUCAAAAGAAAUAGUCUUGCGCCCAACCAGAAAGUCUGUAAUCAUUUUAAGGGUA [A63G U108C]', 'self-cleavage', 0.02),
  ('GUUAACGGUCUUAGGCCAUGGAAACUAGGAGCACCAUUUCGCUGCCAGUGAAGAAAUGAACAAAGAAAAUCUGGGCCAGGCAGGCAUCAAAAGAAACAGUCUUGCGCUCAACCAGAAAGUCUGUAAUCAUUUUAAGGGUA [A11U U97C]', 'self-cleavage', 0.56);

IN: Report self-cleavage for GUUAACGGUCUUAGGCCAUGGAAACUAGGAGCACCAUUUCGCUGCCAGUGAAGAAAUGAACAAAGAAAAUCUGGGCCAGGCAGGCAUCAAAAGAAAUAGUCUUGCGCUCAGCCAGAAAGUCUGUAAUCAUUUUAAGGGUA [A11U A111G] please.
OUT: 0.06

IN: Report self-cleavage for GUUAACGGUCAUAGGCCGUGGAAACUAGGAGCACCAUUUCGCUGCCAGUGAAGGAAUGAACAAAGAAAAUCUGGGCCAGGCAGGCAUCAAAAGAAAUAGUCUUGCGCUCAACCAGAAAGUCUGUAAUCAUUUUAAGGGUA [A18G A54G] please.
OUT: 0.96

IN: Report self-cleavage for GUUAACGGUCAUAGGCCAUGGAAACUAGGAGCACCAUUUCGCUGCCAGUGAAGAAAUGUACAAAGAAAAUCUGGGCCAGGCAGGCAUCGAAAGAAAUAGUCUUGCGCUCAACCAGAAAGUCUGUAAUCAUUUUAAGGGUA [A59U A89G] please.
OUT: 1.48

IN: Report self-cleavage for GUUAACGGUCAUAGGCCAUGGAAACUAGGAGCACCACUUCGCUGCCAGUGAAGAAAUGAACAAAGAAAAUCUGGGCCAGGCAGGCAUCAAAAGAAAUAGUCUUGCGCUCAACCAGAAAGUCUGUAAUCAUUUUAAUGGUA [U37C G136U] please.
OUT: 1.97

IN: Report self-cleavage for GUUAACGGUCAUAGGCCAUGGAAACUAGGAGCACCAUUUCGCUGCCGGUGACGAAAUGAACAAAGAAAAUCUGGGCCAGGCAGGCAUCAAAAGAAAUAGUCUUGCGCUCAACCAGAAAGUCUGUAAUCAUUUUAAGGGUA [A47G A52C] please.
OUT: 0.5

IN: Report self-cleavage for GUUAACGGUCAUAGGCCAUGGAAACUAGGAGAACCAUUUCGCUGCCAGUGAAGAAGUGAACAAAGAAAAUCUGGGCCAGGCAGGCAUCAAAAGAAAUAGUCUUGCGCUCAACCAGAAAGUCUGUAAUCAUUUUAAGGGUA [C32A A56G] please.
OUT: 0.28

IN: Report self-cleavage for GUUAACGGUCAUAGGCCAUGGAAACUAGGAGCACCAUUUCGCUGCCAGUGAAGAAAUGAACAAAGAAAAUCUGGGCCGGGCAGGCAUCAAAAGAAAUAGUCUUGCGCUCAACCGGAAAGUCUGUAAUCAUUUUAAGGGUA [A78G A114G] please.
OUT: 0.05

IN: Report self-cleavage for GUUAACGGUCAUAGGCCAUGGAAAUUAGGAGCACCAUUUCGCUGCCAGUGAAGUAAUGAACAAAGAAAAUCUGGGCCAGGCAGGCAUCAAAAGAAAUAGUCUUGCGCUCAACCAGAAAGUCUGUAAUCAUUUUAAGGGUA [C25U A54U] please.
OUT: 1.33
